# target.desc: MOR (Homo sapiens, UniProt P35372)
# Sequence (P35372 whole entry): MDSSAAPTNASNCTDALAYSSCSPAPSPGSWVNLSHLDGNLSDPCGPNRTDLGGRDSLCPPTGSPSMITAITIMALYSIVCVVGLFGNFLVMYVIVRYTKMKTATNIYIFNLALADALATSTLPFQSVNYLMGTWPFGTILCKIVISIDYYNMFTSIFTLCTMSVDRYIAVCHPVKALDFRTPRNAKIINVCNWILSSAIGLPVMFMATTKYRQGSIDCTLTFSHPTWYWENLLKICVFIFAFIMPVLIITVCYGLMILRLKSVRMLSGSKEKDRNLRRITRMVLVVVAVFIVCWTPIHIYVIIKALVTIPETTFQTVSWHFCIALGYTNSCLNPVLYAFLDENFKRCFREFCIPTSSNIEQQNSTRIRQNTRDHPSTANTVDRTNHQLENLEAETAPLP

[
  {
    "compound": "CCC(=O)NC1CC(C)N(CCc2ccccc2)CC1C (stereo not shown) [VDM-001]",
    "IC50, µM": 30
  }
]
